Cited source: paper PMC4707132

# TARGET OF ASSAY: UniProt Q07820
MEASURE NAME: Ki (µM)
Answers are plain numbers, in µM.

INPUT: What does the data say about its Ki? Entry: `Cc1c(/C=N/N2C=Nc3c([nH]c4ccccc34)C2)c(=O)oc2c3c4c(cc12)CCCN4CCC3`
OUTPUT: 1.2

----------
# TARGET OF ASSAY: Mcl-1 (Homo sapiens, UniProt Q07820)
# Sequence (Q07820 whole entry): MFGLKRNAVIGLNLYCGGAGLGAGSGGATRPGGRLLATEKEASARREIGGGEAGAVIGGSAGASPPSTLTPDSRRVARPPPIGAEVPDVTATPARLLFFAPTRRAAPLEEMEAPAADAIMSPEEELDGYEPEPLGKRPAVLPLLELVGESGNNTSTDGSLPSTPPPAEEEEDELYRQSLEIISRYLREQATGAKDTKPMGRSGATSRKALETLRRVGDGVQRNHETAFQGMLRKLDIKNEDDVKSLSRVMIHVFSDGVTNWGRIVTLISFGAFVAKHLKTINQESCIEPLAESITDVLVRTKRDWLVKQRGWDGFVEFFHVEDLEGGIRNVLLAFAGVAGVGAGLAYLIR
# ASSAY PROTOCOL: bio-layer interferometry
# Type: binding
# CONDITION DETAILS: label-free BLI
MEASURE NAME: direct binding to Mcl-1

C[C@@]12CC[C@@H]3[C@H](CCC4=CC(=O)CC[C@H]43)[C@H]1CC[C@H]2OC1(O)C(=O)c2ccccc2C1=O confirmed the activity
Cc1c(/C=N/N2C=Nc3c([nH]c4ccccc34)C2)c(=O)oc2c3c4c(cc12)CCCN4CCC3 confirmed the activity
COc1cc(O)c(C(=O)/C=C/c2ccc(O)c(OC)c2)c(OC)c1 confirmed the activity
c1cc2c(cc1[C@H]1OC[C@H]3[C@H]1CO[C@H]3c1ccc3c(c1)OCO3)OCO2 confirmed the activity
